Catalogue of pEC50 values
System: Human immunodeficiency virus 1
Assay: Evaluated for anti-HIV activity
Format: functional, organism-based
pEC50: −log10 of the molar value.

Take a look at these entries with their results.
O=c1ccn([C@H]2O[C@@H](CO)C=C2F)c(=O)[nH]1	< 4.00
Nc1nc(=O)n([C@@H]2O[C@@H](CO)C=C2F)cc1F	< 4.00
Nc1ccn([C@@H]2O[C@@H](CO)C=C2F)c(=O)n1	< 4.00
Cc1cn([C@@H]2O[C@@H](CO)C=C2F)c(=O)[nH]c1=O	< 4.00
Nc1nc(=O)n([C@H]2O[C@@H](CO)C=C2F)cc1F	6.77

Param item = Nc1nc(Cl)c2ncn([C@@H]3O[C@@H](CO)C=C3F)c2n1 ; retrieve measured pEC50. 4.84

Now this one: OC[C@H]1C=C(F)[C@H](n2cnc3c(O)ncnc32)O1 < 4.00
